target: HCV polymerase (Hepatitis C virus genotype 1b); construct: (His)6 (C); experiment: biochemical; conditions: polymerase assay of Biological Example 1; read-out: NS5B polymerase IC50
Threshold 700 nM: IC50 strictly smaller gives Criterion met, otherwise Criterion not met.

Use the examples below as a reference point.
compound=CCc1ccc(-c2oc3nc(N(CCCCC(=O)O)S(C)(=O)=O)c(C4CC4)cc3c2C(=O)NC)cc1 assayed_target="HCV polymerase (Hepatitis C virus genotype 1b)" classification="Criterion met"
compound=CCc1cc2c(C(=O)NC)c(-c3ccc(F)cc3)oc2nc1N(C(C)C)S(C)(=O)=O assayed_target="HCV polymerase (Hepatitis C virus genotype 1b)" classification="Criterion not met"
compound="CNC(=O)c1c(-c2ccc(F)cc2)oc2nc(N(CC3CCCN(C(=O)OC(C)(C)C)C3)S(C)(=O)=O)c(I)cc12 (stereo not shown)" assayed_target="HCV polymerase (Hepatitis C virus genotype 1b)" classification="Criterion not met"
compound=CNC(=O)c1c(-c2ccc(Oc3ccccc3)cc2)oc2nc(N(C)S(C)(=O)=O)c(C3CC3)cc12 assayed_target="HCV polymerase (Hepatitis C virus genotype 1b)" classification="Criterion met"
compound=C=C(c1cc2c(C(=O)NC)c(-c3ccc(F)cc3)oc2nc1N(C)S(C)(=O)=O)C(F)(F)F assayed_target="HCV polymerase (Hepatitis C virus genotype 1b)" classification="Criterion met"
compound=CNC(=O)c1c(-c2ccc(C)cc2)oc2nc(N(CCC[C@H](C)C(=O)OCOP(=O)(OCc3ccccc3)OCc3ccccc3)S(C)(=O)=O)c(C3CC3)cc12 assayed_target="HCV polymerase (Hepatitis C virus genotype 1b)" classification="Criterion met"

Incoming: In plain terms, does `CNC(=O)c1c(-c2ccc(C)cc2)oc2nc(N(CCCc3nn[nH]n3)S(C)(=O)=O)c(C3CC3)cc12` come in under 700 nM for IC50?
Outgoing: Criterion met

* * *

target: HCV polymerase (Hepatitis C virus genotype 1b); construct: (His)6 (C); test: biochemical; conditions: polymerase assay of Biological Example 1; read-out: NS5B polymerase IC50
Measured IC50 values are reported for all entries that follow.
Use nM as the unit, but write only the number.

compound="CNC(=O)c1c(-c2ccc(F)cc2)oc2nc3c(cc12)C(C)CCN3S(C)(=O)=O (stereo not shown) [Example 36.6]" u=nM numeric_result=231
compound="CCc1ccc(-c2oc3nc(N(CCCC(C)(CCOC)C(=O)O)S(C)(=O)=O)c(C4CC4)cc3c2C(=O)NC)cc1 (stereo not shown) [Example 42]" u=nM numeric_result=2
compound="CCc1cc2c(C(=O)NC)c(-c3ccc(Oc4ccccc4)cc3)oc2nc1N(C)S(C)(=O)=O [Example 17]" u=nM numeric_result=128

Consider now this further compound.
Tested on HCV polymerase (Hepatitis C virus genotype 1b), the item CNC(=O)c1c(-c2ccc(F)cc2)oc2nc(N(CCCC3CCCS3(=O)=O)S(C)(=O)=O)c(C3CC3)cc12 (single isomer, unassigned) [Example 24.5] showed IC50 equal to 1

* * *

molecular target: HCV polymerase (Hepatitis C virus genotype 1b, UniProt Q9WMX2); construct: (His)6 (C); test: biochemical; conditions: NS5B polymerase IC50 μM, polymerase assay of Biological Example 1
readout-label: IC50
Remember to follow the number with its unit.

Solved entries:
compound="CNC(=O)c1c(-c2ccc(C)cc2)oc2nc(N(CCCCCP(C)(=O)O)S(C)(=O)=O)c(I)cc12 [Example 23.9998]" result="0.011 µM"
compound="CCOP(C)(=O)CCCCN(c1nc2oc(-c3ccc(CC)cc3)c(C(=O)NC)c2cc1I)S(C)(=O)=O (stereo not shown) [Example 23.9991]" result="0.026 µM"
compound="CCOP(C)(=O)CCCN(c1nc2oc(-c3ccc(C)cc3)c(C(=O)NC)c2cc1C1CC1)S(C)(=O)=O (stereo not shown) [Example 23.99992]" result="0.007 µM"
compound="CCOP(C)(=O)CCCCCN(c1nc2oc(-c3ccc(C)cc3)c(C(=O)NC)c2cc1C1CC1)S(C)(=O)=O (stereo not shown) [Example 23.99995]" result="0.009 µM"
compound="CNC(=O)c1c(-c2ccc(C)cc2)oc2nc(N(CCCCCP(C)(=O)O)S(C)(=O)=O)c(C3CC3)cc12 [Example 23.999991]" result="0.004 µM"
compound="CNC(=O)c1c(-c2ccc(C)cc2)oc2nc(N(CCCCP(C)(=O)O)S(C)(=O)=O)c(C3CC3)cc12 [Example 23.99999]" result="0.006 µM"
compound="CCOP(C)(=O)CCCCCN(c1nc2oc(-c3ccc(C)cc3)c(C(=O)NC)c2cc1I)S(C)(=O)=O (stereo not shown) [Example 23.9994]" result="0.038 µM"
compound="CCOP(C)(=O)CCCCN(c1nc2oc(-c3ccc(C)cc3)c(C(=O)NC)c2cc1I)S(C)(=O)=O (stereo not shown) [Example 23.9995]" result="0.017 µM"

# IC50 (compound: CCOP(C)(=O)CCCCN(c1nc2oc(-c3ccc(C)cc3)c(C(=O)NC)c2cc1C1CC1)S(C)(=O)=O (stereo not shown) [Example 23.99993] ) is 0.011 µM

# IC50 (compound: CNC(=O)c1c(-c2ccc(C)cc2)oc2nc(N(CCCCP(C)(=O)O)S(C)(=O)=O)c(I)cc12 [Example 23.9999] ) is 0.013 µM

# IC50 (compound: CNC(=O)c1c(-c2ccc(C)cc2)oc2nc(N(CCCP(C)(=O)O)S(C)(=O)=O)c(C3CC3)cc12 [Example 23.99998] ) is 0.005 µM

# IC50 (compound: CCOP(C)(=O)CCCCCN(c1nc2oc(-c3ccc(CC)cc3)c(C(=O)NC)c2cc1I)S(C)(=O)=O (stereo not shown) [Example 23.9992] ) is 0.02 µM

# IC50 (compound: CCc1ccc(-c2oc3nc(N(CCCCCP(C)(=O)O)S(C)(=O)=O)c(I)cc3c2C(=O)NC)cc1 [Example 23.9997] ) is 0.012 µM

* * *

Measured pIC50 values are reported for all entries that follow.
target: HCV polymerase (Hepatitis C virus genotype 1b); construct: (His)6 (C); test: biochemical; conditions: polymerase assay of Biological Example 1; read-out: NS5B polymerase IC50
In plain terms, pIC50 is the concentration in mol/L turned into minus its base-10 logarithm.

Solved entries:
molecule="CNC(=O)c1c(-c2ccc(C)cc2)oc2nc(N(CCOCCCC(=O)O)S(C)(=O)=O)c(C3CC3)cc12 [Example 23.999998]" numeric_result=8.30
molecule="CCc1cc2c(C(=O)NC)c(-c3ccc(F)cc3)oc2nc1N(CCCCC(C)(C)O)S(C)(=O)=O [Example 22.97]" numeric_result=7.34
molecule="CNC(=O)c1c(-c2ccc(F)cc2)oc2nc(N(CCCCN)S(C)(=O)=O)c(I)cc12 [Example 20]" numeric_result=5.74
molecule="CCc1ccc(-c2oc3nc(N(CCCCC4(C(=O)O)CCOCC4)S(C)(=O)=O)c(C4CC4)cc3c2C(=O)NC)cc1 [Example 29.94]" numeric_result=8.52
molecule="CNC(=O)c1c(-c2ccc(F)cc2)oc2nc3c(cc12)C(C)(O)CCCN3S(C)(=O)=O (stereo not shown) [Example 32]" numeric_result=6.19

# pIC50 (molecule: CNC(=O)c1c(-c2ccc(C)cc2)oc2nc(N(CCC[C@@H](C)C(=O)N[C@H](C(=O)OC)c3ccccc3)S(C)(=O)=O)c(C3CC3)cc12 [Example 29.99997] ) is 8.40

# pIC50 (molecule: CCc1cc2c(C(=O)NC)c(-c3ccc(F)cc3)oc2nc1N(CCCCC(=O)N(C)C)S(C)(=O)=O [Example 22.992] ) is 7.39

* * *

Measured pIC50 values are reported for all entries that follow.
target: HCV polymerase (Hepatitis C virus genotype 1b); construct: (His)6 (C); test: biochemical; conditions: polymerase assay of Biological Example 1; read-out: NS5B polymerase IC50
In plain terms, pIC50 is the concentration in mol/L turned into minus its base-10 logarithm.

smiles_code=CNC(=O)c1c(-c2ccc(C)cc2)oc2nc(N(CCCC3(C(=O)O)CCN(C(=O)OC(C)(C)C)CC3)S(C)(=O)=O)c(C3CC3)cc12 numeric_result=6.93
smiles_code=CCc1cc2c(C(=O)NC)c(-c3ccc(F)cc3)oc2nc1N(CCOCCOC)S(C)(=O)=O numeric_result=6.16
smiles_code=CNC(=O)c1c(-c2ccc(F)cc2)oc2nc(N(CCN3CCOCC3)S(C)(=O)=O)c(I)cc12 numeric_result=6.59

Tested on HCV polymerase (Hepatitis C virus genotype 1b), the item `CNC(=O)c1c(-c2ccc(F)cc2)oc2nc(N(CCCCC(=O)OC)S(C)(=O)=O)c(I)cc12` showed pIC50 equal to 6.94

Tested on HCV polymerase (Hepatitis C virus genotype 1b), the item `CCc1cc2c(C(=O)NC)c(-c3ccc(F)cc3)oc2nc1N(CCc1ccc(OC)cc1)S(C)(=O)=O` showed pIC50 equal to 6.64

Tested on HCV polymerase (Hepatitis C virus genotype 1b), the item `CNC(=O)c1c(-c2ccc(F)cc2)oc2nc(N(CCCCC(=O)O)S(C)(=O)=O)c(C3CC3)cc12` showed pIC50 equal to 8.52

Tested on HCV polymerase (Hepatitis C virus genotype 1b), the item `CCc1cc2c(C(=O)NC)c(-c3ccc(F)cc3)oc2nc1N(CCC1CCN(C(=O)OC(C)(C)C)CC1)S(C)(=O)=O` showed pIC50 equal to 6.81
